# system_name: insulin-HRP (Homo sapiens, UniProt P01308)
# Sequence (P01308 90-110): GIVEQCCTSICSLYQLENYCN
# Sequence (P01308 25-54): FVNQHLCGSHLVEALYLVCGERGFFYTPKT
# procedure_details: Insulin-HRP binding to IR peptides (ELISA plate, ABTS read-out)
# test_context: Ins-HRP at 10 nM, IR peptide in the absence of glycation
No end group written: not given here.
measured_metric: 10 nM Ins-HRP Binding (Native)

- H-FRVYGLESLKDLF [91-103]: YES
- GMDIRNNLTRLHELE [37-51, synthetic insulin receptor peptide, residues 37-51 of human IR (UniProt P06213)]: no
- H-NLTVIRGSRLFFNY [105-118]: YES
- H-TIDWSRILDS [157-166]: no
- HLYFGEVCPGMDIRNN [28-43, synthetic insulin receptor peptide, residues 28-43 of human IR (UniProt P06213)]: no

###

# system_name: insulin-HRP (Homo sapiens)
# procedure_details: Effect of glycation on insulin-HRP binding to IR peptides
# test_context: change in Ins-HRP binding at 10 nM after exposure of the peptide to glycating conditions (six days at 20 mM glucose)
No end group written: not given here.
measured_metric: Ins-HRP Binding Inhibition (Glycated)

* H-TQGKLFFHYNPK [453-464] | no
* H-TIDWSRILDS [157-166] | no
* ESEDSQKHNQSEYEDS [689-705, synthetic insulin receptor peptide, residues 689-705 of human IR] | no
* KTFEDYLHNVVFV [730-742, synthetic insulin receptor peptide, residues 730-742 of human IR] | no
* GMDIRNNLTRLHELE [37-51, synthetic insulin receptor peptide, residues 37-51 of human IR (UniProt P06213)] | no
* H-NLTVIRGSRLFFNY [105-118] | YES
* HLYFGEVCPGMDIRNN [28-43, synthetic insulin receptor peptide, residues 28-43 of human IR (UniProt P06213)] | no
* ENCSVIEGHLQ [51-61, synthetic insulin receptor peptide, residues 51-61 of human IR, insulin-like] | YES
* H-FRVYGLESLKDLF [91-103] | YES

###

# system_name: insulin-HRP (Homo sapiens)
# procedure_details: Insulin-HRP binding to IR peptides (ELISA plate, ABTS read-out)
# test_context: Ins-HRP at 10 nM, IR peptide in the absence of glycation
No end group written: not given here.
measured_metric: 10 nM Ins-HRP Binding (Native)

• KTFEDYLHNVVFV [730-742, synthetic insulin receptor peptide, residues 730-742 of human IR] = no
• ESEDSQKHNQSEYEDS [689-705, synthetic insulin receptor peptide, residues 689-705 of human IR] = no
• H-TQGKLFFHYNPK [453-464] = no
• ENCSVIEGHLQ [51-61, synthetic insulin receptor peptide, residues 51-61 of human IR, insulin-like] = YES
